Recorded values, source patent US20200199204A1.

# tgt: HIV-1 Env of THRO.18 (HIV-1)
# assay-details: cell-based or functional assay
metric-name: neutralization IC50

Task: Answer with the recorded neutralization IC50 of CAP256-VRC26.08 (antibody, V domains shown) VH: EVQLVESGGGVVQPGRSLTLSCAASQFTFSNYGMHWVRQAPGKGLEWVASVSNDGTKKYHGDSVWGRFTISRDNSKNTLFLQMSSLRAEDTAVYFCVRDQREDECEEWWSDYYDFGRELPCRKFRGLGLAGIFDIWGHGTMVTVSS VL: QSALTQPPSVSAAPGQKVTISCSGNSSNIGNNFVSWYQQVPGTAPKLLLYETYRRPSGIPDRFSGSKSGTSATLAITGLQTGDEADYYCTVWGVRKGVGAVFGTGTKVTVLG only.
Output: > 50 µg/mL
